Source listed as PubChem BioAssay (NCATS).

This listing pairs compounds with measured activation.
test: qHTS assay for small molecule activators of the p53 signaling pathway (AID 651743); settings: HCT-116 p53RE-bla, beta-lactamase FRET ratio, 16 h; stronger effect = higher value; further: series mostly up to about 92 µM; % of control where 0% means no effect
Results filed as inconclusive are left out.
Lab book: enter the figure in %, no units written.

The examples below pair each entry with its known result.
| Compound | Numeric readout |
| --- | --- |
| CCCCOCCOCCSC#N | -1.56 |
| COc1ccc(N=[N+]([O-])c2ccc(OC)cc2)cc1 | -0.811 |
| Cc1ccc2ccccc2c1[N+](=O)[O-] | 0.53 |

Look up activation for this compound: CCCCC(CC)CO (stereo not given)
-4.64

Again, but for CC(C)(C)OCC1CO1 (stereo not given)
0.176

Repeat with Cc1cc(C)cc(O)c1
-2.15

Same again, this time with CCC=O
-0.942

Another compound: CCN(CC)c1cccc(O)c1
-0.279
